Every entry's value here was drawn from patent US8841456B2.

target: glutathione S-transferase (GST)-fusion human ERK2 protein (Homo sapiens); construct: purchased Carna Biosciences, Inc; host or cells: E. coli expression system; assay: ERK2 enzyme assay (LabChip mobility shift); format: biochemical; settings: IC50 class; 2 nM ERK2, 4.25 μM FL-Peptide 8, 43 μM ATP; read-out: ERK2 Inhibitory Activity
pIC50: −log10 of the molar value.
# reported pIC50; entries follow

Some solved entries appear below for comparison.
O=C(Nc1ccc2ncc(-c3cnn(CCN4CCC4)c3)cc2n1)NC1CCCC1 [Compound 0024]: 6.00 to 7.00
O=C(Nc1ccc2ncc(NC(=O)c3ccccc3)cc2n1)NC1CCCC1 [Compound 0134]: 5.00 to 6.00
O=C(NCc1ccncc1)Nc1ccc2ncc(-c3cn[nH]c3)cc2n1 [Compound 0103]: 6.00 to 7.00

Q. Entry under review: CC(CCc1ccccc1)NC(=O)Nc1ccc2ncc(-c3cn[nH]c3)cc2n1 (centres unmarked) [Compound 0088] . Reported pIC50?
A. > 7.00

Q. Quick one: pIC50 of Cc1c(-c2cnn(C)c2)cnc2ccc(NC(=O)NC3CCCC3)nc12 [Compound 0237] ?
A. > 7.00

Q. Using the record for CC(CCc1ccccc1)NC(=O)Nc1ccc2ncc(-c3cnn(CCCN4CCOCC4)c3)cc2n1 (centres unmarked) [Compound 0179] , report its pIC50.
A. > 7.00

Q. Value lookup for pIC50; key = CC(=O)OCCCCn1cc(-c2cnc3ccc(NC(=O)NC4CCCC4)nc3c2)cn1 [Compound 0249]
A. > 7.00

Q. What value of measured pIC50 is listed for O=C(NCCO)Nc1ccc2ncc(-c3cn[nH]c3)cc2n1 [Compound 0097] ?
A. 6.00 to 7.00

---

molecular target: glutathione S-transferase (GST)-fusion human ERK2 protein (Homo sapiens, UniProt P28482); construct: purchased Carna Biosciences, Inc; host or cells: E. coli expression system; assay: ERK2 enzyme assay (LabChip mobility shift); format: biochemical; conditions: IC50 class; 2 nM ERK2, 4.25 μM FL-Peptide 8, 43 μM ATP; read-out: ERK2 Inhibitory Activity
Sequence (P28482 whole entry, the tested form may be a part): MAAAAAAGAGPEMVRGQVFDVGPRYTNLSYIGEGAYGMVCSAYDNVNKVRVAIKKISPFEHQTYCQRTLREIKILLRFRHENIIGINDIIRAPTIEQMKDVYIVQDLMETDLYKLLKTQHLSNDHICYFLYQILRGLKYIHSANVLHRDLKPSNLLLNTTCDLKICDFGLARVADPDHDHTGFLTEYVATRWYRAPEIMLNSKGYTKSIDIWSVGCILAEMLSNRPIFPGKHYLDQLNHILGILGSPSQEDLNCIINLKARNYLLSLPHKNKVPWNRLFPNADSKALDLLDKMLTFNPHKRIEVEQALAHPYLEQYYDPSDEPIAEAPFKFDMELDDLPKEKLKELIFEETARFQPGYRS
Quantity Measured: IC50

O=C(Nc1ccc2ncc(-c3ccoc3)cc2n1)NC1CCCC1: < 100 nM
COc1cc(-c2cnc3ccc(NC(=O)NC4CCCC4)nc3c2)ccc1O: < 100 nM
CN(C)CCCNC(=O)Nc1ccc2ncc(-c3cn[nH]c3)cc2n1: 100 to 1000 nM
O=C(Nc1ccc2ncc(-c3cn[nH]c3)cc2n1)NN1CCCC1: 100 to 1000 nM

Shifting focus to the molecule that follows.
Q. Which IC50 value belongs to `CC(C)[C@@H](C)NC(=O)Nc1ccc2ncc(-c3cn[nH]c3)cc2n1` ?
A. < 100 nM

---

target: human PI3Kα protein (Homo sapiens, UniProt P42336); construct: purchased Carna Biosciences, Inc; host or cells: Baculovirus expression system; assay: PI3Kα enzyme assay (ADP-Glo kinase assay); format: biochemical; conditions: IC50 class; 3 nM PI3Kα, 50 μM PIP2, 100 μM ATP; read-out: PI3Kα Inhibitory Activity
Sequence (P42336 whole entry): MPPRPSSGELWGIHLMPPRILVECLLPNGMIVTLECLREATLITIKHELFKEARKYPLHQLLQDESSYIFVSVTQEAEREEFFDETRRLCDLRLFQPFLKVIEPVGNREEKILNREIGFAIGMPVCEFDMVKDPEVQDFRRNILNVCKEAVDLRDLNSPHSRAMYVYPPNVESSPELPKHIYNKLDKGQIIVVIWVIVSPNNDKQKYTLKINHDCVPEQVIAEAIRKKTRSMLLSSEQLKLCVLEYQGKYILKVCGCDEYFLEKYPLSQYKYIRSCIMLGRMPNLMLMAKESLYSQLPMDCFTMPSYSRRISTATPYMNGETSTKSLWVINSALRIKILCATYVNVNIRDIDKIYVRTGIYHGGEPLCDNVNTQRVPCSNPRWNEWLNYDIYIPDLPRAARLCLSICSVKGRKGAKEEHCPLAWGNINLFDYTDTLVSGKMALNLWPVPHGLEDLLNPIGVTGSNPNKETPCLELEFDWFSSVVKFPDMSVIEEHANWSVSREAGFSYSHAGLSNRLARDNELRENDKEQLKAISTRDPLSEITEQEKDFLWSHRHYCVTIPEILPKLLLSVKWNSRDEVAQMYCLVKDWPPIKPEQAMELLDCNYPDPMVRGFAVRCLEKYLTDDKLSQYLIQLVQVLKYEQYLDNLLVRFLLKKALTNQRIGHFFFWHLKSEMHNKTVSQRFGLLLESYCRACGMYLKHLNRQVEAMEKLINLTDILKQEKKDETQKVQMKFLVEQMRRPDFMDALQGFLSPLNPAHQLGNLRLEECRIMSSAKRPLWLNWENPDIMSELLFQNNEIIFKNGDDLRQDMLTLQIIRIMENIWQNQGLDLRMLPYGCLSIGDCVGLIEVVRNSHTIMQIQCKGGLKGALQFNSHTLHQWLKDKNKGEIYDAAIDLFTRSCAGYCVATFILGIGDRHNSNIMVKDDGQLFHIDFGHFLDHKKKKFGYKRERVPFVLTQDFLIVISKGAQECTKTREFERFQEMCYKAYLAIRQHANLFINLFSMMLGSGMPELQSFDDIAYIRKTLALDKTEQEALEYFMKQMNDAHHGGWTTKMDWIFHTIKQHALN
Sequence (P27986 whole entry partner): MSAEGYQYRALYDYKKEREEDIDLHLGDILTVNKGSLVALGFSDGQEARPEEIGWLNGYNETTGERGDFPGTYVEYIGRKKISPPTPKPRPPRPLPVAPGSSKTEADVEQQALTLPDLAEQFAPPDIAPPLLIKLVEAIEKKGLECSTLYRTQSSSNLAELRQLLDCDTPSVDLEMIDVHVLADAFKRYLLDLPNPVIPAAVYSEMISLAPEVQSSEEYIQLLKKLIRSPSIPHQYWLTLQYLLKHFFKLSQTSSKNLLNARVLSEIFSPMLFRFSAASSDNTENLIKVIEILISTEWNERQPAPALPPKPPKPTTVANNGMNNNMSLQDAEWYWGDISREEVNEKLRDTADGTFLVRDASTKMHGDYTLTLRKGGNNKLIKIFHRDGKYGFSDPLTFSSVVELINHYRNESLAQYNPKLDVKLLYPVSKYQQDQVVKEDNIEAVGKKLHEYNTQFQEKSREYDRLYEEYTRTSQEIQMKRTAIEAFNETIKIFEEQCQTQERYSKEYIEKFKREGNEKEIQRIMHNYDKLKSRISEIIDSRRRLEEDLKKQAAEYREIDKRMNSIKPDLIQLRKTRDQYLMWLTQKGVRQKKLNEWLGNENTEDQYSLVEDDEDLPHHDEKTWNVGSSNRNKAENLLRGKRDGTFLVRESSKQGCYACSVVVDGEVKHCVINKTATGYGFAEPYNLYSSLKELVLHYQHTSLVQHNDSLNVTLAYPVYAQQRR
Catalogue of IC50 values

CC(CCc1ccccc1)NC(=O)Nc1ccc2ncc(-c3cn[nH]c3)cc2n1 (centres unmarked): < 0.1 µM

Q. Form entry - test system: human PI3Kα protein (Homo sapiens, UniProt P42336); read-out: IC50; compound: `CC1(NC(=O)Nc2ccc3ncc(-c4cnn(C5CCNCC5)c4)cc3n2)CCCC1`
A. < 0.1 µM
